- experiment.notes: refractive index (Na D-line) (dimensionless)
- experimental.parameters: 293.15 K; 101.33 kPa; Liquid; Standard Abbe refractometry
endpoint: refractive index

compound | refractive index
CCC(C)O (stereo not given) | 1.3976
CCCO | 1.3853
CCCCCC | 1.3725
O | 1.3333
CC(C)CO | 1.3958

* * *

- experimental.parameters: 303.15 K; Liquid; Ebulliometric method (Recirculating still)
endpoint: vapor or sublimation pressure (kPa)

Study these solved cases before continuing.
compound | unit.name | vapor or sublimation pressure
O | kPa | 4.27
CCCO | kPa | 3.9

(1) CCCCCC
(2) CC(C)CO
(3) CCC(C)O (stereo not given)
Rank order required: vapor or sublimation pressure, descending. // ordering of labels required in reply
1, 3, 2
